Measured values drawn from patent US10781224B2 for this set.

System: winter wheat (Vershin variety)
Assay: Winter wheat seed treatment with BHMPA salts: germinating power (length and mass of roots and sprouts)
Format: in vivo
Conditions: 1·10^−11% solution
OBSERVABLE: Mass, dry, sprout (g/100 plantlings)
Entry rule: numbers only, all in g/100 plantlings.

Prompt line: Mass, dry, sprout lookup needed for O=P([O-])(CO)CO.O=P([O-])(CO)CO.[Mg+2] [Mg-salt, Magnesium BHMPA Salt] , thanks.
Response line: 1.07

Prompt line: Same again, this time with O.O.O=P([O-])(CO)CO.O=P([O-])(CO)CO.[Co+2] [Co-salt, Cobalt BHMPA Salt]
Response line: 0.56

Prompt line: Continue with O=P([O-])(CO)CO.O=P([O-])(CO)CO.[Ca+2] [Ca-salt, Calcium BHMPA Salt]
Response line: 0.54

Prompt line: Same thing, different compound: O=P([O-])(CO)CO.O=P([O-])(CO)CO.[Zn+2] [Zn-salt, Zinc BHMPA Salt]
Response line: 0.74

Prompt line: Try this compound too: O.O.O=P([O-])(CO)CO.O=P([O-])(CO)CO.[Mn+2] [Mn-salt, Manganese BHMPA Salt]
Response line: 0.75

Prompt line: Try this compound next: O=P([O-])(CO)CO.[Na+] [Na-salt, Sodium BHMPA Salt]
Response line: 0.60
